Source listed as the supplement of paper PMC6755084.

B1: F1*; the commonest letter at each place (parent)
chain: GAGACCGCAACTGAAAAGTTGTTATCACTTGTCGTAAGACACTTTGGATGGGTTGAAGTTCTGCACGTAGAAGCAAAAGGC

# Variants of: B1
# ASSAY METHOD TEXT: fraction ligated after 30 min (ligated reads / total reads); higher = more ligase activity
# RUN PARAMETERS: with F1*sub RNA substrate (template-directed ligation), 42 °C
variants and their reported fraction ligated
PROPERTY MEASURED: fraction ligated

>>> value_measured("GAGACCGCAACTGAAAAGTTGTTTTCACTTGTCGCAAGACACTTTGGATGGGTTGAAGTTCTGCACGTAGAAGCAAAAGGC [A24T T35C]")
0.788
>>> value_measured("GAGACCGCAACTGAAAAGTTGTTTTCACTTGTCGTAAGACAATTTGGATGGGTTGAAGTTCTGCACGTAGAAGCAAAAGGC [A24T C42A]")
0.743
>>> value_measured("GAGACCGCAACTGAAAAGTTGTTATCACTTGTCGTTAGATACTTTGGATGGGTTGAAGTTCTGCACGTAGAAGCAAAAGGC [A36T C40T]")
0.83
>>> value_measured("GAGACCGCAACTGAAAAGTTGTCATCACTTGTCGTAAGACACTTTGGAGGGGTTGAAGTTCTGCACGTAGAAGCAAAAGGC [T23C T49G]")
0.78
>>> value_measured("GAGACCGCAACTGAAAAGTTGTTATCACTTGTCGTAAGACACTTTGGACGGGTTGACGTTCTGCACGTAGAAGCAAAAGGC [T49C A57C]")
0.266
>>> value_measured("GAGACCGCAACTGAAAAGTTGTTATAGCTTGTCGTAAGACACTTTGGATGGGTTGAAGTTCTGCACGTAGAAGCAAAAGGC [C26A A27G]")
0.747
>>> value_measured("GAGACCGCAACTGAAAAGTTGTTTTCACTTGTTGTAAGACACTTTGGATGGGTTGAAGTTCTGCACGTAGAAGCAAAAGGC [A24T C33T]")
0.742
>>> value_measured("GAGACCGCAACTGAAAAGTTGTAATCACTTGTGGTAAGACACTTTGGATGGGTTGAAGTTCTGCACGTAGAAGCAAAAGGC [T23A C33G]")
0.838
>>> value_measured("GAGACCGCAACTGAAAAGTTGTTATCACTCGTCGTAAGACACTTTGGGTGGGTTGAAGTTCTGCACGTAGAAGCAAAAGGC [T30C A48G]")
0.329
>>> value_measured("GAGACCGCAACTGAAAAGTTGTTATCACTTGTCGCAAGATACTTTGGATGGGTTGAAGTTCTGCACGTAGAAGCAAAAGGC [T35C C40T]")
0.862
>>> value_measured("GAGACCGCAACTGAAAAGTTGTCATCACTTGTCGTAAGACACTTTGGATAGGTTGAAGTTCTGCACGTAGAAGCAAAAGGC [T23C G50A]")
0.632
